Task for the reader: assign each of the following molecules its reported TGI.
- System: LOX IMVI melanoma
- assay name: NCI tumour cell line growth inhibition, 48 h

Look up TGI of COC1C(OC(=O)/C=C/C=C/C=C/C=C\C(=O)O)CCC2(CO2)C1C1(C)OC1CC=C(C)C (centres undefined) and report it.
> 200 µM

Query TGI for `COC(=O)C(CBr)CBr`
7.75 µM

# return recorded TGI for entry O=C(CC1(O)C(=O)Nc2ccccc21)c1ccc(O)cc1 (centres undefined)
> 100 µM

Let me know recorded TGI for `O=C(N/N=C/c1ccccc1O)c1ccccc1Nc1ccccc1C(=O)N/N=C/c1ccccc1O` , thanks.
> 100 µM

# return recorded TGI for entry `CCCCCCCCCCCCOc1ccc(/C=C/C2=[N+](CCCl)CCO2)cc1`
39.9 µM

Provide only the value of recorded TGI for `O=[N+]([O-])c1cc(Cl)ccc1OCc1ccccc1`
> 100 µM

Output measured TGI for this item: `CCOc1ccc(N=NS(=O)(=O)O)cc1`
> 100 µM

Give TGI for the following molecule: `N#Cc1c(Cl)nc2ccccc2c1N=[N+]=[N-]`
3.47 µM

For the molecule `Cc1ccc(NC(=S)SCCC(=O)O)cc1` , report TGI.
> 100 µM

Hello, please tell me recorded TGI for this one: `O=C(O)CN1CCN(CC(=O)N2CCN(C(=O)OCc3ccccc3)CC2)CCN(CC(=O)O)CCN(CC(=O)N2CCN(C(=O)OCc3ccccc3)CC2)CC1`
> 100 µM

Provide only the value of recorded TGI for `Oc1cccc2cc(Br)cnc12`
> 39.7 µM

Tell me its TGI given CN(C)CC1CCCCCCCCCC(CN(C)C)C1=O (centres undefined) as the entry.
> 37.2 µM

State, in one line, measured TGI of `O=c1c2cc(I)ccc2nc(SCc2n[nH]c(=S)o2)n1Cc1ccccc1`
29.1 µM

# return recorded TGI for entry `O=C(NCCN1CCCCC1)c1ccc(I)cc1`
> 100 µM

Provide TGI value for the following molecule: `NC(=O)N/N=C(/Cc1nc2ccc(C(=O)c3ccccc3)cc2[nH]c1=O)C(=O)Nc1ccc(C(F)(F)F)cc1[N+](=O)[O-]`
> 100 µM

Quick one: give measured TGI for C=C1C2CC(OC(C)=O)C3(C)C(c4ccoc4)OC(=O)[C@@H](O)[C@]13OC1C[C@H](OC(C)=O)C(C)(C)[C@H](CC(=O)OC)[C@]12C (some centres undefined)
> 100 µM

Tell me its TGI given `O=c1c(NO)c([N+](=O)[O-])cnn1-c1ccccc1` as the entry.
3.66 µM

# return recorded TGI for entry Cc1ccc(N=NN(C)C(=O)C(C)N)cc1 (centres undefined)
> 100 µM

Please supply the value of reported TGI for the item `COc1cc(-c2n/c(=C\c3c(O)[nH]c4cc(Cl)ccc34)cc3c2=Nc2ccccc2-3)cc(OC)c1OC`
16 µM

Return TGI for the following molecule: `NCCSCc1ccccc1Cl`
66.1 µM

Complete the entry with TGI for COC(=O)/C=C1/SC(N2N=C(c3cccs3)CC2c2ccc(F)cc2)=NC1=O (centres undefined)
3.06 µM

// Input: `Cc1cc2nc3cc(C)c(N)cc3[n+](-c3ccccc3)c2cc1N` . Output its TGI only.
> 100 µM

State its TGI: `C[n+]1c(-c2ccc(/C=N/NC(=O)c3ccc(C(=O)N/N=C/c4ccc(-c5cn6ccccc6[n+]5C)cc4)cc3)cc2)cn2ccccc21`
> 1000 µM

Kindly indicate its recorded TGI. Item: `COC1=CC(=O)c2c(c(COP(=O)(N(C)CCBr)N(C)CCBr)cn2C)C1=O`
3.56 µM

For the molecule `O=C(O)CCc1c2ccc(=O)c(O)c-2oc2c(O)c(O)ccc12` , report TGI.
47.9 µM

For the molecule CCOC(=O)[C@H]1Nc2ccc([N+](=O)[O-])cc2C2c3ccccc3CC21 (some centres undefined) , give its measured TGI value.
33.2 µM

Give the measured TGI for Oc1ccccc1C1=NOC(c2ccc(C(F)(F)F)cc2)C1 (centres undefined)
> 50 µM

For `CCC(=O)Nc1ccccc1C#C/C=C\C#Cc1ccccc1C(F)(F)F` , write its TGI.
> 50 µM

Please report TGI for the following molecule: `NC(N)=Nc1nc2ccc([N+](=O)[O-])cc2[nH]1`
> 100 µM

Given `O=c1[nH]nc(Cn2c3ccc(Br)cc3c3nc4ccccc4nc32)n1C1CCCCC1` , respond with its TGI.
> 100 µM

Output measured TGI for this item: `CCc1cc2ncc(CN3CCN(c4ccc(C(=O)NC)nc4)CC3)cc2[nH]c1=O`
> 100 µM

State, in one line, measured TGI of `CN(C)C=NCCN1CCOCC1`
> 100 µM

Assign TGI to the following record: COc1ccc(N=Nc2c(C)c(C#N)c(=S)n(C3OC(CO)C(O)C(O)C3O)c2C)cc1 (centres undefined)
> 100 µM

Note TGI for the molecule shown: Cc1cccc(N2C(=O)C(=O)C(c3nc4ccccc4s3)/C(=N/NC(=S)NN)C2=O)c1C (centres undefined)
> 100 µM

Provide one value: measured TGI of `CC1(C)C(=O)/C=C\C(=O)C(C)(C)C(=O)/C=C\C(=O)C(C)(C)C(=O)/C=C\C(=O)C(C)(C)C(=O)/C=C\C1=O`
> 53.8 µM

Please indicate TGI recorded for `N#Cc1c(O)c(N=Nc2ccc(Cl)cc2)c(=O)n2c1[nH]c1ccccc12`
> 100 µM

Return TGI for the following molecule: Fc1cccc(Cl)c1C1SCc2nc3cc4ccccc4cc3n21 (centres undefined)
> 100 µM

Please give measured TGI of the following entry: `Clc1ccc(-c2ccc(-c3nnc(COc4ccc(OCc5nnc(-c6ccc(-c7ccc(Cl)cc7Cl)o6)o5)c(Cl)c4)o3)o2)c(Cl)c1`
> 100 µM

Name the recorded TGI of the item `CCCCOCc1cc(CN2CCN(C)CC2)c(O)c2ncccc12` in your answer.
> 100 µM

Give the reported value of TGI for this record: `CN(C)S(=O)(=O)n1cnc(CO)c1`
> 100 µM

Read off the recorded TGI for `SCc1ccc(CS)s1`
> 100 µM

Answer with reported TGI of `Cc1cc(C(=O)O)c(C)n1-c1cccc(C(=O)O)c1`
> 100 µM

Identify the reported TGI for the following entry. `O=C(Cc1nc2ncccc2[nH]c1=O)c1c[nH]c2ccccc12`
44 µM

Return TGI for the following molecule: `CCCCCCOc1ccc(C(=O)N(C)O)cc1`
> 100 µM

----------
Provide the recorded GI50 for the entries that follow.

Enter recorded GI50 with U251 CNS for `COc1cc(N2CCN(C(C)C)CC2)ccc1Nc1nc(Nc2cccc(F)c2C(=O)O)c2cc[nH]c2n1` here.
> 25 µM

Lab note: record GI50 of `O=C1C(=O)c2ccccc2C(O)=C1CCCc1ccc(C2CCCCCC2)cc1` tested on U251 CNS.
0.687 µM

Provide the reported GI50 (system: U251 CNS) for `C[CH2][Ge]([CH2]C)([CH2]C)[O]C(=O)CCC(=O)[O][Ge]([CH2]C)([CH2]C)[CH2]C`
43.3 µM

Please report the measured GI50 for COc1cc(C2C3=C(COC3=O)Nc3c2ccc2c3CCCC2)cc2c1OCO2 (stereo not given) tested on U251 CNS.
0.0418 µM

Under U251 CNS: report GI50 of Cc1[nH]c(-c2nc3ccccc3[nH]2)c(C)c1C(=O)NC(C)C1CCCCC1 (stereo not given) .
5.58 µM

----------
- System: DU-145 prostate
- assay name: NCI tumour cell line growth inhibition, 48 h
attribute measured: TGI

Return TGI (reported value) for this molecule: `[O-][N+]1=NC(c2ccccc2)=C1c1ccccc1`
> 50 µM

Please indicate TGI recorded for `c1cncc(C2Nc3cccc4cccc(c34)N2)c1`
> 100 µM

Answer with the recorded TGI of `N=C(N)c1ccc(-c2ccc(-c3cccs3)s2)s1` only.
2.97 µM

Give TGI for the following molecule: `O=c1oc2ccc(Cl)cc2cc1-c1cn2ccccc2n1`
> 100 µM

Query TGI for `O=C1C(=O)c2ccccc2C(O)=C1CCCc1ccc(C2CCCCCC2)cc1`
34.3 µM

Specify reported TGI for the molecule shown: `O=c1[nH]nc(Cn2c3ccc(Br)cc3c3nc4ccccc4nc32)n1C1CCCCC1`
> 100 µM

----------
- System: DU-145 prostate
- assay name: NCI tumour cell line growth inhibition, 48 h; in the data active = GI50 below about 0.43 µM; inactive = the rest
Pick one: Y = active, N = inactive

Can you look up the reported call for `CCCNC(=O)c1ccc(Cl)cc1Cl` for me?
N

Could you check what this test reported for `C[n+]1c(-c2ccc(/C=N/NC(=O)c3ccc(C(=O)N/N=C/c4ccc(-c5cn6ccccc6[n+]5C)cc4)cc3)cc2)cn2ccccc21` ?
N

Record request — test call for Cc1[nH]c(-c2nc3ccccc3[nH]2)c(C)c1C(=O)NC(C)C1CCCCC1 (stereo not given)
N

Answer briefly: the call reported for `OCCNCCCOc1ccc2ncnc(Nc3ccc(Oc4cccc(C(F)(F)F)c4)c(Cl)c3)c2c1` in this assay.
N

Assay result, entry `Cc1[nH]nc2c1N=C(c1ccccc1F)c1cc(C(N)=O)ccc1N2` — outcome?
N

// param item: `CCCCNC(=O)Oc1ccc(/C(=C(/C)Cc2ccc(OC)cc2)c2ccc(OCCN3CCCC3)cc2)cc1` ; yields the recorded call
N

Please let me know the test result on file for `COCCN1CCN(Cc2ccc(-c3n[nH]c4c3C(=O)c3c(NC(=O)NN5CCOCC5)cccc3-4)cc2)CC1` .
Y

Hi, do you know how COC1C(OC(=O)/C=C/C=C/C=C/C=C\C(=O)O)CCC2(CO2)C1C1(C)OC1CC=C(C)C (stereo not given) came out in this test?
N

Could you please tell me the result logged for CC(=O)C1=C(C)N(C)C2(O)C=CC(=O)C3=C(O)c4ccccc4C(=O)C312 (stereo not given) in this assay?
N

Called result for `CN1CCN(Cc2ccc(NC(=O)c3cncc(C#Cc4cncc5nccnc45)c3)cc2C(F)(F)F)CC1`
N

Hello, I am checking results. What call was entered for `CCCCc1n(Cc2ccc3ccccc3c2)cc[n+]1Cc1ccc2ccccc2c1` ?
N

Please indicate how the test categorized COC(=O)/C=C1/SC(N2N=C(c3cccs3)CC2c2ccc(F)cc2)=NC1=O (stereo not given) .
N

What did the test return for `C/C(=N\NC(=S)N1CC2CCC(CC2)C1)c1cccc(C)n1` ?
Y

Hi, sorry to bother you, what did the test record for `O=C1C(=O)c2ccccc2C(O)=C1CCCc1ccc(C2CCCCCC2)cc1` ?
N

Please share the test call associated with `COc1ccc(/C=C2\CN(Cc3cn(CCNc4ccnc5cc(Cl)ccc45)nn3)C/C(=C\c3ccc(OC)c(OC)c3)C2=O)cc1OC` .
N

Hey, just so you know, these numbers are from PubChem BioAssay (NCI).
